B1: TPR t1 (parent)
chain: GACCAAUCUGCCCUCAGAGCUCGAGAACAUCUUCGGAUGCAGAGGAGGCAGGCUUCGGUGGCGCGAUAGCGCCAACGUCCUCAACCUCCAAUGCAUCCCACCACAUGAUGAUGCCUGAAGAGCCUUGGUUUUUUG

variants of: B1; assay: polymerase ribozyme fitness, log enrichment relative to wild type (log ratio); higher = more active; in vitro selection for triplet polymerase activity
Reported polymerase ribozyme fitness (log ratio) maps to class as: one: < -4; two: ≥ -4 and < -2; three: ≥ -2

* A27U C89U | two
* C4U U14A C73U | one
* G10A C12U G71U U112A | three
* A29U G47C C73G U109A | three
* C8G C12G G60U G93A | three

Here is another variant to look at.
Band for C34U G122U ?
two
